system: SK-MEL-2; experiment: NCI tumour cell line growth inhibition, 48 h
Active and inactive are the calls of the source. Rule as the data show it: active = GI50 up to about 1.1 µM and inactive = higher.
Give measured GI50 for each item. Keep answers brief.

Illustrative cases are given below, each with its answer.
[[record]]
molecule = "CN1Cc2ccccc2/C=C\\c2ccccc21"
result = "25.4 µM (inactive)"

[[record]]
molecule = "Cc1c2c(n(CC(c3ccccc3)c3ccccc3)c1C)NN=C(C#N)S2(=O)=O"
result = "> 100 µM (inactive)"


Respectfully, I request GI50 for each entry included below.
1. Oc1cc(O)cc(/C=C/c2ccc(O)c(O)c2)c1 [PICEATANNOL]
2. CCC(=C(C#N)C#N)c1cc(OC)c(OC)c(OC)c1

Solution:
3.87 µM (inactive)
> 100 µM (inactive)

Field: GI50. Fill in for each record below.
1. CCOP(=O)(OCC)C(Nc1cccc(F)c1)c1ccc(N(C)C)cc1 (stereo unspecified)
2. Cc1[nH]n(-c2ccc(S(=O)(=O)O)cc2)c(=O)c1/N=N/c1ccccc1

Solution:
["> 100 µM (inactive)", "> 100 µM (inactive)"]

---

For each of the compounds below, state its GI50.
system: SF-295; assay: NCI tumour cell line growth inhibition, 48 h
Calls of active or inactive are those of the source. Rule as the data show it: active = GI50 up to about 1.1 µM and inactive = higher.

Example cases with answers are listed next.
[[record]]
compound = "NNC(=O)/C(NC(=O)c1ccccc1)=C(\\N)c1ccc(Cl)cc1"
target_under_test = "SF-295"
experimental_readout = "GI50"
result = "> 100 µM (inactive)"

[[record]]
compound = "O=S(=O)(O)c1ccc(/N=N/c2ccc(/N=N/c3c(O)ccc4cc(S(=O)(=O)O)ccc34)cc2)cc1"
target_under_test = "SF-295"
experimental_readout = "GI50"
result = "> 100 µM (inactive)"

[[record]]
compound = "Cc1ccc2c(c1C)CC1(Cc3c(C)ccc(C)c3C1=O)C2=O (configuration not stated)"
target_under_test = "SF-295"
experimental_readout = "GI50"
result = "> 100 µM (inactive)"


Go through the list and state GI50 for each entry.
1. [O-]c1c[n+](CCCC[n+]2cc([O-])on2)no1
2. O=[N+]([O-])c1cccc(C2N3CCCCC3[C@@H]3c4[nH]c5ccccc5c4CCN23)c1 (some centres not stated)
3. CC(C)CCS(=O)(=O)OCCCCOS(=O)(=O)CCC(C)C
4. O=c1c(Nc2ccccc2)cn(CCOc2ccccc2)c(=O)n1CCOc1ccccc1

Solution:
1: > 100 µM (inactive); 2: 15.1 µM (inactive); 3: > 100 µM (inactive); 4: 52.5 µM (inactive)

---

test system: PC-3; experiment: NCI tumour cell line growth inhibition, 48 h
The source made the active and inactive calls. Cut-off read from the data, not from the text of the source: active = GI50 up to about 1.1 µM and inactive = higher.
In this exercise, the only acceptable responses are true = active, false = inactive

[[record]]
compound = "Cc1cc(=O)[nH]c(-n2[nH]c3c(c2=O)CCCC3)n1"
target_under_test = "PC-3"
label_value = "false"

[[record]]
compound = "Cc1nc2ccc(S(=O)(=O)Nc3ccccn3)cc2c(=O)n1NS(=O)(=O)c1ccccn1"
target_under_test = "PC-3"
label_value = "false"

[[record]]
compound = "O=c1[nH]c(=O)n(CCOCP(=O)(O)O)nc1Br"
target_under_test = "PC-3"
label_value = "false"

[[record]]
compound = "N#CC[N+]1(Cc2ccccn2)CCCC1.O=S(=O)([O-])c1ccccc1"
target_under_test = "PC-3"
label_value = "false"

[[record]]
compound = "O=[N+]([O-])c1ccc2nc(-c3ccccn3)c(-c3ccccn3)nc2c1"
target_under_test = "PC-3"
label_value = "false"

[[record]]
compound = "COc1cc(/C=C/c2ccc(S(N)(=O)=O)cc2)cc(OC)c1"
target_under_test = "PC-3"
label_value = "false"

[[record]]
compound = "CSc1nnnc2ccccc12"
target_under_test = "PC-3"
label_value = "false"

[[record]]
compound = "CN(C)/C=N/c1c2c(nc3ccccc13)CCCC2"
target_under_test = "PC-3"
label_value = "false"

[[record]]
compound = "COc1ccc([C@@]23Oc4cc(OC)cc(OC)c4[C@]2(O)[C@H](O)[C@H](C(N)=O)[C@H]3c2ccccc2)cc1 [DIDESMETHYLROCAGLAMIDE]"
target_under_test = "PC-3"
label_value = "true"


Consider now this further compound.
Problem: Field: outcome | Entry: Fc1ccc(-c2sc(-c3ccsc3)cc2Cc2ccsc2)cc1
Solution: false
